Data credit: patent US20240109865A1

- subjectOfTest: FGFR2 (Homo sapiens (Human), UniProt P21802)
- Sequence (P21802 22-821): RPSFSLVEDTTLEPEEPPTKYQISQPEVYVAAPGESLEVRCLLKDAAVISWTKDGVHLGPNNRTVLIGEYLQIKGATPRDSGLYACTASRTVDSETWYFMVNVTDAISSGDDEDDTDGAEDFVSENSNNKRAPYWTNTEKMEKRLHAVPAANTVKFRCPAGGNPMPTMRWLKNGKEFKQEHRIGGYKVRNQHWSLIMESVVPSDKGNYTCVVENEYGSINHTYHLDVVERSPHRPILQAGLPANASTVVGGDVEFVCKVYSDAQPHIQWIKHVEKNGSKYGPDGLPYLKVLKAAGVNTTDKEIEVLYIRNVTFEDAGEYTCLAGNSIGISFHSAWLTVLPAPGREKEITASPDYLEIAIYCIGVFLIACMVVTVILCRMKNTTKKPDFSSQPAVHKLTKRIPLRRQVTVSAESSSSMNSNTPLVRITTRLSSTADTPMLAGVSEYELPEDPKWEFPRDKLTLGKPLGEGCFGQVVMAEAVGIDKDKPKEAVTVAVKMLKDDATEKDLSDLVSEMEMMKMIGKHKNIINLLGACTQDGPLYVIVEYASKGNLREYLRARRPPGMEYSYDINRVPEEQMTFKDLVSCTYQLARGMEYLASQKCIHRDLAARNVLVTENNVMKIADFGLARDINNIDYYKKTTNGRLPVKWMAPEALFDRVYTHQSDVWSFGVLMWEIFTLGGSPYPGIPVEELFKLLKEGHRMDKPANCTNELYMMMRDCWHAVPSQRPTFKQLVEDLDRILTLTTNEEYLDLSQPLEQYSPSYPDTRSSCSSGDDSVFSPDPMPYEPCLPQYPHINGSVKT
- testProtocol: Kinase assay, binding constants (Kd), kinase-tagged T7 phage, qPCR
# Kd per record follows

compound="C[C@@H](Oc1ccc2[nH]nc(-c3cnc(N4CCC5(CC4)C(=O)NCCN5C)c(F)c3)c2c1)c1c(Cl)cncc1Cl [Example 44]" assayvalue="1 to 20 nM"
compound="COc1cc2[nH]nc(-c3cnc(N4CC5(C4)CN(S(C)(=O)=O)C5)c(C)c3)c2cc1O[C@H](C)c1c(Cl)cncc1Cl [Example 250]" assayvalue="1 to 20 nM"
compound="C[C@@H](Oc1ccc2[nH]nc(-c3cnc(N4CC5(CNC5)C4)nc3)c2c1)c1c(Cl)cncc1Cl [Example 118]" assayvalue="20 to 100 nM"
compound="Cc1cc(-c2n[nH]c3ccc(O[C@H](C)c4c(Cl)cncc4Cl)cc23)cnc1N1CC2(C1)CN(S(C)(=O)=O)C2 [Example 248]" assayvalue="20 to 100 nM"
compound="C[C@@H](Oc1ccc2[nH]nc(-c3ccc(N4CCN(S(C)(=O)=O)CC4)nc3)c2c1)c1c(Cl)cncc1Cl [Example 6]" assayvalue="20 to 100 nM"
compound="C[C@@H](Oc1ccc2[nH]nc(-c3cnn(C4CCN(C5CCC5)CC4)c3)c2c1)c1c(Cl)cncc1Cl [Example 90]" assayvalue="1 to 20 nM"

Name the recorded Kd for C[C@@H](Oc1ccc2[nH]nc(-c3cnn(C4CCN(C(N)=O)CC4)c3)c2c1)c1c(Cl)cncc1Cl [Example 68] .
1 to 20 nM

And for C[C@@H](Oc1ccc2[nH]nc(-c3ccc(N4CCC5(CCCN5C)CC4)nc3)c2c1)c1c(Cl)cncc1Cl [Example 33] ?
1 to 20 nM

C[C@@H](Oc1ccc2[nH]nc(-c3cnc(N4CC5(CCCN(S(C)(=O)=O)C5)C4)nc3)c2c1)c1c(Cl)cncc1Cl [Example 134] , same question.
20 to 100 nM

----------
Listed below: IC50 values for each entry.
- subjectOfTest: FGFR3-BAIAP2L1 Ba/F3 cells (Homo sapiens, UniProt P22607)
- Sequence (P22607 23-806 limits assumed, change not shown): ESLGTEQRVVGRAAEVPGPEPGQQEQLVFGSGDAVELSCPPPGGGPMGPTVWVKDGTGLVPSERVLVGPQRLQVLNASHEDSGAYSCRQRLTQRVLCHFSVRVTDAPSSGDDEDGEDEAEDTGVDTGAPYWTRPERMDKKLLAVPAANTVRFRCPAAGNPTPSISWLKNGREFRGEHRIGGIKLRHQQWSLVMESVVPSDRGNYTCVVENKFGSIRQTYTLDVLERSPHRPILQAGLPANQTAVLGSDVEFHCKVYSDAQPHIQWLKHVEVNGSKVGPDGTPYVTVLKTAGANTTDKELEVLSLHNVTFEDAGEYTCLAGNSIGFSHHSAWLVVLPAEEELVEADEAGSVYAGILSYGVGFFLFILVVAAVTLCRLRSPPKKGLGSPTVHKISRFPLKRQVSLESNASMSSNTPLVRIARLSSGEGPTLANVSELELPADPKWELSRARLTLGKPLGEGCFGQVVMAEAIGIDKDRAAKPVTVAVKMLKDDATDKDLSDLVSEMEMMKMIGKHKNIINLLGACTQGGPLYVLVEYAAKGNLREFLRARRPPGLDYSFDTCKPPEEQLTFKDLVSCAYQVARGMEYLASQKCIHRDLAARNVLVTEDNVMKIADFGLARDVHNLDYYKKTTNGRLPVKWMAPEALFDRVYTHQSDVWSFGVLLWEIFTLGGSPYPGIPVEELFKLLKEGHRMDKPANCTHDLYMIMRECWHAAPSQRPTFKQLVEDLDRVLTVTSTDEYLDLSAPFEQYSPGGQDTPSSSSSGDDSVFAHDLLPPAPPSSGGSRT
- testProtocol: Ba/F3 cell viability assay (CellTiter-Glo 2.0), FGFR3-BAIAP2L1 Ba/F3
- Format: cell-based
- conditionSet: read-out: Ba/F3 Cells FGFR3 (IC50 nM); FGFR3-BAIAP2L1 Ba/F3 cells, 48 hours, Cell Titer Glo 2.0

compound="C[C@@H](Oc1ccc2[nH]nc(-c3ccc(N4CC5(CCN(S(C)(=O)=O)CC5)C4)nc3)c2c1)c1c(Cl)cncc1Cl [Example 111]" experimentalreadout=IC50 assayvalue="1 to 20 nM"
compound="C[C@@H](Oc1ccc2[nH]nc(-c3cnc(N4CCC5(CCS(=O)(=O)C5)C4)nc3)c2c1)c1c(Cl)cncc1Cl (stereo partly shown) [Example 127]" experimentalreadout=IC50 assayvalue="1 to 20 nM"
compound="CC(Oc1ccc2[nH]nc(-c3cnn(C4CCN(C5COC5)CC4)c3)c2c1)c1c(Cl)ccnc1Cl (stereo not shown) [Example 108]" experimentalreadout=IC50 assayvalue="1 to 20 nM"

Here is another compound to look at.
What does the data say about its IC50? Entry: C[C@@H](Oc1ccc2[nH]nc(-c3cnc(N4CCN(C(=O)N5CCN(C)CC5)CC4)nc3)c2c1)c1c(Cl)cncc1Cl [Example 15]
20 to 100 nM
